Reported inhibition at 1 µM values are given for each entry in this list.
Test system: J774
Experiment: Antiinflammatory activity in mouse J774 cells assessed as inhibition of LPS-induced NO production at 1 uM preincubated for 2 hrs followed by LPS stimulation and measured after 22 hrs by Griess reagent based assay relative to control
Type: functional
# unit: % | format: bare number

Form: item CC(O)(C#Cc1ccc(N2CCNCC2)c(Nc2ncnc3[nH]ccc23)c1)c1nccs1 (stereo not drawn) ; test system J774; inhibition at 1 µM: 68

Entry CC(O)(C#Cc1ccc2c(c1)N(c1nc(N)ncc1Cl)CC2)c1nccs1 (stereo not drawn) : inhibition at 1 µM on J774 = 43.9

Record CC(O)(C#Cc1ccc(N2CCOCC2)c(Nc2ccnc3[nH]ccc23)c1)c1nccs1 (stereo not drawn) / J774, inhibition at 1 µM recorded as 60.4

Response field inhibition at 1 µM (J774) for item CC(O)(C#Cc1ccc(OC2CCOCC2)c(Nc2ncnc3[nH]ccc23)c1)c1nccs1 (stereo not drawn) : 68.3

Sample C[C@](O)(C#Cc1ccc(N2CCOCC2)c(Nc2ncnc3[nH]ccc23)c1)c1nccs1 , system: J774. Its inhibition at 1 µM is 74.3

Hey, J774 data for CC(O)(C#Cc1ccc(N2CCN(S(=O)(=O)C3CC3)CC2)c(Nc2ncnc3[nH]ccc23)c1)c1nccs1 (stereo not drawn) : inhibition at 1 µM came out at 37.2

Form field inhibition at 1 µM for item CN1CCCN(c2ccc(C#CC(C)(O)c3nccs3)cc2Nc2ncnc3[nH]ccc23)CC1 (stereo not drawn) on J774: 67.3

Field inhibition at 1 µM (system: J774) for entry C[C@@](O)(C#Cc1ccc(N2CCOCC2)c(Nc2ncnc3[nH]ccc23)c1)c1nccs1 = 100
